Quick reference for pIC50 among some molecules
# TARGET: cGAS (Homo sapiens, UniProt Q8N884)
# Sequence (Q8N884 whole entry): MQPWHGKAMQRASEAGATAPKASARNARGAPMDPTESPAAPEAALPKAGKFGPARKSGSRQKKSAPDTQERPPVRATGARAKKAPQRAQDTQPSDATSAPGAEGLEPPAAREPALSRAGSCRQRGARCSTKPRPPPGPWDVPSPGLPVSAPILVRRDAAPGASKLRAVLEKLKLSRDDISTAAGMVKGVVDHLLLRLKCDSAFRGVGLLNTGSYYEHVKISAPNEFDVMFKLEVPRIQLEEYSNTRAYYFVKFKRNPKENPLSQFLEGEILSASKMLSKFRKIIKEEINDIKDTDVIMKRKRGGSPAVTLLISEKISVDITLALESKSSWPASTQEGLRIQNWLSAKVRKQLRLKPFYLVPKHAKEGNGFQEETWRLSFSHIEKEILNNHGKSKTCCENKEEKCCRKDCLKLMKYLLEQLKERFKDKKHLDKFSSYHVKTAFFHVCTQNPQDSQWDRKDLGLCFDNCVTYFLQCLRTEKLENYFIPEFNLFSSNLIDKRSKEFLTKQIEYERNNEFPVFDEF
# EXPERIMENT_NOTES: cGAS enzymatic assay (FP/TR-FRET detection of cGAMP)
# Format: biochemical
# Design: The cGAS assay was used to screen 100,000 compounds with full-length human cGAS; 6xHis; made in house
# REPORTED_CONDITIONS: cGAS (30 nM); read-out: Inhibition cGAS
pIC50: −log10 of the molar value.

INPUT: So what does the record say about pIC50 for Cc1cncc(CC(=O)N[C@H]2C[C@@H](C(=O)O)N(c3nc(C)nc4c3oc3ccccc34)C2)c1 ?
OUTPUT: 6.00 to 6.30

Others:
INPUT: So what does the record say about pIC50 for Cc1nc(N2C[C@@H](NC3CCCNC3)C[C@H]2C(=O)O)c2oc3ccccc3c2n1 (some centres unmarked) ?
OUTPUT: 6.00 to 6.30

INPUT: So what does the record say about pIC50 for CC(C)c1nc(N2CCC[C@H]2C(=O)O)c2oc3ccccc3c2n1 ?
OUTPUT: 5.00 to 6.00

INPUT: So what does the record say about pIC50 for CCc1nc(N2CCC[C@H]2C(=O)O)c2oc3ccccc3c2n1 [Compound 1] ?
OUTPUT: 5.00 to 6.00

INPUT: So what does the record say about pIC50 for O=C(O)[C@@H]1CCCN1c1nc(C2CC2)nc2c1oc1ccccc12 ?
OUTPUT: 5.00 to 6.00
